Each recorded value in this set is attributed to ChEMBL document CHEMBL1201862.

- Test system: UO-31
- protocol: NCI tumour cell line growth inhibition, 48 h
The source made the active and inactive calls. Cut-off read from the data, not from the text of the source: active = GI50 up to about 1.1 µM and inactive = higher.
In this exercise, the only acceptable responses are label 1 (active), label 0 (inactive)

Exam item: Query: recorded result category for CC(C)(C)[Si](C)(C)OCC1OC(n2cnc3c(N)ncnc32)C(O)C1O (stereo unspecified) in this test
Marked response: label 0

Exam item: Query: recorded result category for OC(CCN1CCN(CCOC(c2ccc(F)cc2)c2ccc(F)cc2)CC1)c1ccccc1 (stereo unspecified) in this test
Marked response: label 0

Exam item: Query: recorded result category for Cc1n2nc(N)sc2n[n+]1CC(=O)c1ccccc1 in this test
Marked response: label 0

Exam item: Query: recorded result category for N=c1oc2ccc3ccccc3c2cc1-c1nc(O)c2ccccc2n1 in this test
Marked response: label 0

Exam item: Query: recorded result category for CC1=C(C2=C(C)C(=O)C(=O)c3cc(C)ccc32)c2ccc(C)cc2C(=O)C1=O in this test
Marked response: label 1

Exam item: Query: recorded result category for CC(C)=CC1C(C(=O)Oc2ccccc2C(C)C)C1(C)C (stereo unspecified) in this test
Marked response: label 0

Exam item: Query: recorded result category for CCOC(=O)C(C)(C)Oc1ccc2c(-c3ccccc3)cc(=O)oc2c1 in this test
Marked response: label 0

Exam item: Query: recorded result category for O=[N+]([O-])c1ccc2c(c1)Nc1c3ccccc3nc3cccc-2c13 in this test
Marked response: label 0

Exam item: Query: recorded result category for CCCCCNC(=O)c1cc2cc(CCl)ccc2oc1=O in this test
Marked response: label 0

Exam item: Query: recorded result category for CCC(=N\NC(N)=S)/C(C)=N/O in this test
Marked response: label 0

Exam item: Query: recorded result category for COc1cc2c(cc1OC)C(C1(O)CCCCC1)NCC2 (stereo unspecified) in this test
Marked response: label 0

====

- Tested on: SW-620
- protocol: NCI tumour cell line growth inhibition, 48 h
The source made the active and inactive calls. Rule as the data show it: active = GI50 up to about 1.1 µM and inactive = higher.
In this exercise, the only acceptable responses are 1 = active, 0 = inactive

Exam item: Query: recorded result category for CCC(CO)COC(=O)/C=C/C(=O)OCC(CC)CO (configuration not stated) in this test
Marked response: 0

Exam item: Query: recorded result category for COc1ccc(-c2cc(=O)c3c(O)cccc3o2)c(OC)c1OC in this test
Marked response: 0

Exam item: Query: recorded result category for Cc1cc(C)n2c(-c3ccccc3)c(C)cc2n1 in this test
Marked response: 0

Exam item: Query: recorded result category for Cc1ccc(NC(=O)c2ccc(OP(=O)(O)Nc3ccc(C)cc3)cc2)cc1 in this test
Marked response: 0

Exam item: Query: recorded result category for N=C1C=C(N)C(=O)c2[nH]c(=O)ccc21 in this test
Marked response: 0

Exam item: Query: recorded result category for O=C1c2ccccc2N1C(=O)c1ccccc1[N+](=O)[O-] in this test
Marked response: 0

Exam item: Query: recorded result category for CC(=O)/C(=N\O)C(=O)NCc1ccccc1 in this test
Marked response: 0

Exam item: Query: recorded result category for NCCOc1cccc(C2(N3CCCCC3)CCCCC2)c1 in this test
Marked response: 0

Exam item: Query: recorded result category for CC(O)c1cc2c(s1)C(=O)c1scc(C(C)O)c1C2=O (configuration not stated) in this test
Marked response: 1

Exam item: Query: recorded result category for COc1ccc(C2ON(c3ccccn3)CC=C2C)cc1 (configuration not stated) in this test
Marked response: 0

Exam item: Query: recorded result category for CCN(C(=S)N[C@@H](Cc1ccccc1)C(=O)N[C@@H](CC(C)C)C(=O)OC)c1ccccc1 in this test
Marked response: 0

Exam item: Query: recorded result category for CCCN1CC=C(c2cc(C(=O)OCC)[nH]c2-c2cc(C)no2)C1=O in this test
Marked response: 0

====

- System: RPMI-8226
- protocol: NCI tumour cell line growth inhibition, 48 h
Calls of active or inactive are those of the source. Rule as the data show it: active = GI50 up to about 1.1 µM and inactive = higher.
In this exercise, the only acceptable responses are yes for active, no for inactive

Exam item: Query: recorded result category for Nc1nc(O)c2c(ncn2CC(O)CO)n1 (stereo unspecified) in this test
Marked response: no

Exam item: Query: recorded result category for C=C1C(=O)OC2C(C)C3C=CC(=O)[C@@]3(C)C(OC(=O)/C(C)=C/C)C1[C@@H]2OC(C)=O (stereo partly specified) in this test
Marked response: yes

Exam item: Query: recorded result category for CSc1nc2nccnc2c(=O)[nH]1 in this test
Marked response: no

Exam item: Query: recorded result category for CSc1nc(N)c2c(-c3ccccc3)c3c(nc2n1)CCCC3 in this test
Marked response: no

Exam item: Query: recorded result category for c1ccc(COc2ccc3[nH]c4c5c6ccccc6nc-5c[nH]c4c3c2)cc1 in this test
Marked response: no

Exam item: Query: recorded result category for O=C(O)C(Oc1nc(S)nc(S)n1)(c1ccc(Cl)cc1)c1ccc(Cl)cc1 in this test
Marked response: no

Exam item: Query: recorded result category for Cc1ccc(S(=O)(=O)NC(=O)C2=C3SCCN3C(=O)N(S(=O)(=O)c3ccc(C)cc3)C2c2ccccc2)cc1 (stereo unspecified) in this test
Marked response: no

Exam item: Query: recorded result category for COC(=O)c1c(O)ccc2c1c1c(n2Cc2ccc(OC)cc2)C(=O)c2ccccc2C1 in this test
Marked response: no

Exam item: Query: recorded result category for CC(C)C(=O)C(C)(C)CCc1ccccn1 in this test
Marked response: no

Exam item: Query: recorded result category for CCCCc1c2c(nc3c1CCC/C3=C\c1ccccc1)C(=O)CCC2 in this test
Marked response: no

Exam item: Query: recorded result category for CC(=O)/C(=N\O)C(=O)NCc1ccccc1 in this test
Marked response: no

====

- Test system: OVCAR-3
- protocol: NCI tumour cell line growth inhibition, 48 h
Calls of active or inactive are those of the source. No stated cut-off is given here; in the data, active = GI50 up to about 1.1 µM and inactive = higher.
In this exercise, the only acceptable responses are label 1 = active, label 0 = inactive

Exam item: Query: recorded result category for COC(=O)c1ccc(/C=C2\Oc3ccccc3C2=O)cc1 in this test
Marked response: label 0

Exam item: Query: recorded result category for CC(=C/c1ccccc1)/C=C1/NC(=S)N(/C=C2\C(=O)Oc3ccccc3C2=O)C1=O in this test
Marked response: label 0

Exam item: Query: recorded result category for Cc1ccc(NC(=O)/C(Cl)=C(/Cl)C(=O)O)cc1 in this test
Marked response: label 0

Exam item: Query: recorded result category for O=C(NC(Nc1ccc(F)c(Cl)c1)(C(F)(F)F)C(F)(F)F)C(C(F)(F)F)C(F)(F)F in this test
Marked response: label 0

Exam item: Query: recorded result category for Cc1ccc(NC(=O)c2ccc(OP(=O)(O)Nc3ccc(C)cc3)cc2)cc1 in this test
Marked response: label 0

Exam item: Query: recorded result category for COc1cccc2c1C(=O)c1ccc3cc(CO)cc(O)c3c1C2=O in this test
Marked response: label 1

Exam item: Query: recorded result category for CCOc1ccccc1Nc1nc(C)c(C(=O)CC(=O)C(=O)Nc2ccccc2)s1 in this test
Marked response: label 0

Exam item: Query: recorded result category for CCC(CO)COC(=O)/C=C/C(=O)OCC(CC)CO (stereo not drawn) in this test
Marked response: label 0

Exam item: Query: recorded result category for CC(C)=CC1C(C(=O)Oc2ccccc2C(C)C)C1(C)C (stereo not drawn) in this test
Marked response: label 0

Exam item: Query: recorded result category for O=C1c2ccccc2OCC12OC21C=CC(Cl)=CC1 (stereo not drawn) in this test
Marked response: label 0

Exam item: Query: recorded result category for CCOC(=O)c1c(C)[nH]c2c1c(CN(C)C)c(O)c1nc(C)c(C)nc12 in this test
Marked response: label 0

Exam item: Query: recorded result category for COc1cc(CSc2ccc(O)cc2)cc(OC)c1OC in this test
Marked response: label 0

Exam item: Query: recorded result category for COc1ccc2[nH]c(Cl)c(/C=C3/C(=O)N(c4ccccc4)c4ccccc43)c2c1 in this test
Marked response: label 0

Exam item: Query: recorded result category for COc1cc(-c2nn3c(=O)n(-c4ccc(Cl)cc4)c(=O)nc3s2)cc(OC)c1OC in this test
Marked response: label 0

Exam item: Query: recorded result category for CCCCCCCCCCSS(=O)(=O)c1ccc(C)cc1 in this test
Marked response: label 0

Exam item: Query: recorded result category for NCCSC1(O)C(=O)c2ccccc2-c2ccccc21 (stereo not drawn) in this test
Marked response: label 1

Exam item: Query: recorded result category for CC1=C(C2=C(C)C(=O)C(=O)c3cc(C)ccc32)c2ccc(C)cc2C(=O)C1=O in this test
Marked response: label 1

Exam item: Query: recorded result category for OCCNCO in this test
Marked response: label 0

Exam item: Query: recorded result category for CCOC(=O)C(C(=O)OCC)C1C=CCC2c3ccccc3COCC21 (stereo not drawn) in this test
Marked response: label 0

Exam item: Query: recorded result category for CCC1C(c2cc(OC)c(OC)c(OC)c2)c2cc3c(cc2OC1N1CCOCC1)OCO3 (stereo not drawn) in this test
Marked response: label 0

Exam item: Query: recorded result category for OC(COc1ccccc1)CN1CCCCC1 (stereo not drawn) in this test
Marked response: label 0

Exam item: Query: recorded result category for O=C(NCC(O)COc1ccccc1)c1ccccc1O (stereo not drawn) in this test
Marked response: label 0

Exam item: Query: recorded result category for C=C1C(=O)OC2CC(C)C(/C=C/C(C)=O)=CCC12 (stereo not drawn) in this test
Marked response: label 0
